Listed here are binders together with their documented SPOT signal as a fraction of Bim BH3's signal on the same receptor and array.
System Tested: T1, Bfl-1, Q16548
T1 chain: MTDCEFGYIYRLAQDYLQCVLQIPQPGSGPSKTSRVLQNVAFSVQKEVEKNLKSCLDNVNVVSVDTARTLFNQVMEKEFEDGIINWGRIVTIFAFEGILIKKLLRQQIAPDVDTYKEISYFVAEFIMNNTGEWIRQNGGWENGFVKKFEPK
Test Name: peptide SPOT array, c-Myc-tagged receptor at 1 uM or 100 nM, anti-c-Myc-Cy3

Examples with answers:
>>> reading("LKELDLSGNSLSHSAVKSLCKTLRRP [NLRP1]")
0.42
>>> reading("TIRNGHDSELLRSLAEELPLEQGFTI [PLCD4]")
0.02

Prompt line: Item PALLVHWAKCDQKMGRGLNSSYDQQE [RGPD2] has what recorded SPOT signal as a fraction of Bim BH3's signal on the same receptor and array?
Response line: 0.26

Prompt line: Item MPYMEAVIHEIQRFGDVIPMSLARRV [CYP2A6] has what recorded SPOT signal as a fraction of Bim BH3's signal on the same receptor and array?
Response line: 0.1
